METHOD: yeast display, Sf9 membrane polyspecificity reagent, FACS + sequencing; frameworks hold sequencing errors
ASSAY READOUT: polyreactivity (PSR sort gate)

{"INPUT SEQUENCE": "QVQLVESGGCLVKAGGSLRLSCAASGSTFSDNAIGWSRQAPGKERELVAAINYSDGSTNYADSVKGRFTISRDNAKNTVYLQINSQQPEDTAVYYCAVDIYFWSYGWWGPYDYWGQGTQVTVSS", "READING": "low polyreactivity"}
{"INPUT SEQUENCE": "QVQLVESGGGLVQAGGSLRLSCAASGSIFFPYVMGWYRQAPGKERELVAAIRRGGGSTYYADSVKGRFTISRDNAKNTVYLQMNSLKPEDTAVYYCAAKGWYVQHFKRGLYNYWGQGTQVTVSS", "READING": "high polyreactivity"}
{"INPUT SEQUENCE": "QVQLVESGGGLVQAGGSLRLSCAASGSTSRGYAMAWYRQAPGKERELFASITLSGGNTYYADSVKGRFTISRDNAKNTVYLQMNSLKPEDTAVYYCAADDRGSSYGHFTVEYGYWGQGTQVTVSS", "READING": "low polyreactivity"}
{"INPUT SEQUENCE": "QVQLVESGGGLVQAGGSLRLSCAASGFTFGRYAMGWYRPAPGKERELVPAISFSGGRTYYADSVKGRFTISRDNAKNTVYLQMNCMKPEDTAVYYCAARRSEEHVGRSTYARYDYWGQGTQVTVSS", "READING": "high polyreactivity"}
{"INPUT SEQUENCE": "QVQLVDSGGGLVQAGGSLRLSCAASGYIFYFNAMGWYRQAPGKEREMVAAISDRDDSTYYADSVKGRFTISRDNAKNTVYLQMNSLKPEDTAVYYCAADGYTYVDDPYDYWGQGTQVTVSS", "READING": "low polyreactivity"}

Query string: Name the recorded polyreactivity (PSR sort gate) of the item "QVQLVESGGGLVQAGGSLRLSCAASGSIFIWYTMGWYRQAPGKERELVAAIDWNSGSTYYADSVKGRFTISRDNAKNTVYLQMNSLKPEDTAVYYCAATTFSGWFIFYYWGQGTQVTVSS" in your answer.
Result string: low polyreactivity

Query string: Name the recorded polyreactivity (PSR sort gate) of the item "QVQLVESGGGLVQAGGSLRLSCAASGRTFGQNAMGWYRQAPGKERELVAAISASGSNTYYADSVKGRFTISRDNAKNTVYVQMNSLKPEDTAVYYCAKQVYRPGQQSRYDYWGQGTQVTVSS" in your answer.
Result string: low polyreactivity

* * *

METHOD: yeast display, Sf9 membrane polyspecificity reagent, FACS + sequencing; frameworks hold sequencing errors
ASSAY READOUT: polyreactivity (PSR sort gate)

Worked cases, polyreactivity (PSR sort gate) given:
{"INPUT SEQUENCE": "QVQLVESGPGLVQAGVSLRLSCAASGSIFAYYAMGWYRQAPGKERELVAAISSRGGNTYYADSVKGRFTISRHYAKNSVYLQMNSLKPEDTAVYYCAADYQYSYGEYDYWGQGTQVTVSS", "READING": "high polyreactivity"}
{"INPUT SEQUENCE": "QVQLVESGGGLVQAGGSLRLSCAASGRIFGRNAMGWYRQAPGKERELVAAISSSGGTYYADSVKGRFTISRDNAKNTVYLQMNSLKPEDTAVYYCAADGPVTGWFYTAIGWVKYDYWGQGTQVTVSS", "READING": "high polyreactivity"}
{"INPUT SEQUENCE": "QVQLVESGGGLVQEGGSLRLSCAASGFTVTDYAMGLYRQAPGKERELVAAITSSGGRTYYADSVKGRFTISRDNAKNTVYLQMNSLKPEDTAGYYCTARPHGSWFEYDYWGQGTEVTVSS", "READING": "high polyreactivity"}
{"INPUT SEQUENCE": "QVQLVESGGGLVQAGGSLRLSCAASGFIFYDYSMAWYRQAPGKEREFVAAISWSGGRTYYADSVKGRFTISRDNAKNTVYLQMNSLKPVDTAVYYCAVDAYRYWWTTYVSDFDYWGQGTQVTVSS", "READING": "high polyreactivity"}
{"INPUT SEQUENCE": "QVQLVESGGGLVQAGGSHRLSCAASRRIFGYNAMGWYRKAPGKERELVAAIRYSGGRTYYADSVKGRFTISRDNAKNTVYLQMNSLKPEDTAVYYCAATAFDKLKVWYYYWGQGTQVTVSS", "READING": "high polyreactivity"}

Query string: Name the recorded polyreactivity (PSR sort gate) of the item "QVQLVESGGGLVQAGGSLRLSCAASGFTFSVYAMGWYRQAPGKERELVATITDSGSTNYADSVKGRFTISRDNAKNTVYLQMNSLKPEDTAVYYCNADFRRYVTYHYYRAVIHHDYWGQGTQVTVSS" in your answer.
Result string: high polyreactivity

Query string: Name the recorded polyreactivity (PSR sort gate) of the item "QVQVVESGGGLVQAGGSLRLSCAASGRIFNRNAMGWYRQAPGKERELVAAITRGGRTNYADSVKGRFRISRDNAQNTVYLQMNSLKPEDTAVYYCAAAYYGSHGRYDYWGQGTQVTVSS" in your answer.
Result string: high polyreactivity

Query string: Name the recorded polyreactivity (PSR sort gate) of the item "QVQLVESGGGLVQAGGSLRLSCAASGFIFSFYAMGWYRQAPGKESELVAAITSSGATTYYADSVKGRFTISRDNAKNTVYLQMNSLKPVDTAVYYCNAVYRRDTGYYRYYYWGQGTQVTVSS" in your answer.
Result string: high polyreactivity

Query string: Name the recorded polyreactivity (PSR sort gate) of the item "QVQLVESGRGLFQAGGSLRLSCAPSGIIIVNYAMGWYRQAPGKERELVAAITTSGGSTYYADSVKGRFTISRDHAKNTVYLQMNSLKPEDTAVYDCAKKSSLFKHVVRYDYWGQGTQVTVSS" in your answer.
Result string: low polyreactivity

Query string: Name the recorded polyreactivity (PSR sort gate) of the item "QVQLVESGGGLVQAGGSLRLSCAASGRIFRSNAMGWYRQAPGKERELVAAITWSGGSTYYADSVKGRFTISRDNAKNTVYLQMNSLKPEDTAVYYCAADGYTAYLPYYWFDYWGQGTQVTVSS" in your answer.
Result string: high polyreactivity

Query string: Name the recorded polyreactivity (PSR sort gate) of the item "QVQLVESGGGLVQAGGSLRLSCAASGRTFRRNAMGWYRQAPGQERELVAGIRKRGGSTYYADSVKGRFTISRDNAKNTVYLQMNSLKPQDTAVYYCAAQPALTYRFYYWGQGTQVTVSS" in your answer.
Result string: high polyreactivity

Query string: Name the recorded polyreactivity (PSR sort gate) of the item "QVQLVESVGGLVQAGGSLRLSCAASGSTFKYYAMGWYRPAPGKERELVAAITYSGGRTYYADSVKGRFTISRDNAKNTVYLQMNSLNPEDTAGYYCAARRGREDDYWGQGTQVTVSS" in your answer.
Result string: low polyreactivity

Query string: Name the recorded polyreactivity (PSR sort gate) of the item "QVQLVESGGGLVQAGGSLRLSCAASGFTLAYNAMGWYRQAPGKESELVAAISKSSGSTYYADSVKGRFTISRDNSKNTFYLQMNSLKPEDTAVYYCAAEFYFNGVWYDYWGQGTQVTVSS" in your answer.
Result string: high polyreactivity

Query string: Name the recorded polyreactivity (PSR sort gate) of the item "QLQLVESGGGLDQAGGSLRLRCASSARIFSGYAIGWYIKAPGKERELVAAITSRSGSTYYADSVKGRFTISRDNAKNSVYFQMNSLKPEDTAVYYCAAEYVRFYWYTSDYWGQGTQVTVSS" in your answer.
Result string: low polyreactivity

Query string: Name the recorded polyreactivity (PSR sort gate) of the item "QDQLVESGGGLVQARGSLRLSCAASGYIFPFYAMGWYRQAPGKESELVASISSSSGRTNYADSVKGRFTISRDNAMNTVYLQMNSLKPEDTAVYYCSAAYLRYVSTQYHYDYWGQGTQVTVSS" in your answer.
Result string: low polyreactivity

* * *

METHOD: yeast display, Sf9 membrane polyspecificity reagent, FACS + sequencing; frameworks hold sequencing errors
ASSAY READOUT: polyreactivity (PSR sort gate)

{"INPUT SEQUENCE": "QVQLVESGGGLLQAGGSLRLSCAASGSTFDYYVMGWYRQAPGKERELVAAISHNAGSTYYADSVKGRFTISRDNAKNTVYLQMNSLKPEDTAVYYCAAPDYRNGVRYPLDYWGQGTQVTVSS", "ASSAY READOUT": "polyreactivity (PSR sort gate)", "READING": "low polyreactivity"}
{"INPUT SEQUENCE": "QVQLVESGGGLVQAGGSLRLSCAASGRIFATYVMGGYRQAPGKERELVATISSGGSTNYADSVKGRFTISRDNAKNTVYLQMNSLKPEDTAVYYCAVVDGNYWYVKGDYWGQGTQVTVSS", "ASSAY READOUT": "polyreactivity (PSR sort gate)", "READING": "low polyreactivity"}
{"INPUT SEQUENCE": "QVQLVESGGGLVQAGGSLRLSCAASGRIFIAYAMGWYRKAPAKERELVAAITDDGGTNYADSVKGRFTISRDNAKNTVYLQMKSLKPEDTAVYYCAATYLIGYYYVWEYDYWGQGTQVTVSS", "ASSAY READOUT": "polyreactivity (PSR sort gate)", "READING": "low polyreactivity"}
